Biological target: Beta-secretase 1 (Homo sapiens, UniProt P56817)
Sequence (P56817 whole entry): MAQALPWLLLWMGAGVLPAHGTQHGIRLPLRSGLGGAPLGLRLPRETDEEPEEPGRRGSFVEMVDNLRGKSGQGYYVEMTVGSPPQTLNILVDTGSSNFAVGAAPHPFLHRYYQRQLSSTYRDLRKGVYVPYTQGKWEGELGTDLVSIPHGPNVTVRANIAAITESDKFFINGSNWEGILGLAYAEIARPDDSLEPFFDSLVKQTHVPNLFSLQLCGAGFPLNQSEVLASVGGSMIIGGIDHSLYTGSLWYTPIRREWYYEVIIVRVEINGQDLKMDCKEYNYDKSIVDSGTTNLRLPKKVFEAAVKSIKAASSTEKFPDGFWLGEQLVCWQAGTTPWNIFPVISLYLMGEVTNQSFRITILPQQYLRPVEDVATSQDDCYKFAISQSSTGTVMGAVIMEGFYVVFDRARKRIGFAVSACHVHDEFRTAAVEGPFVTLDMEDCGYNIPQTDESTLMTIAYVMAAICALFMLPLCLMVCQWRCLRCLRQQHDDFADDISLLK
Test: Inhibition of recombinant human BACE-1 using SEVNLDAEFK as substrate after 90 mins by FRET assay
Peptide text beside a SMILES is read from it. * marks the point of attachment. X1 = C[C@H](NC[C@H](C)N*)C(=O)N[C@@H](CCC(=O)O)C(=O)N[C@@H](Cc1ccccc1)C(=O)O
Consider the following molecules and their measured IC50 readings.
Provide the reading as a plain figure in µM.

Consider the worked cases shown below.
[
  {
    "molecule": "CC1=C(C(=O)Nc2nc(C)cs2)C(c2ccccc2[N+](=O)[O-])C(C(=O)Nc2nc(C)cs2)=C(C)N1",
    "measurement target": "Beta-secretase 1 (Homo sapiens, UniProt P56817)",
    "unit string": "µM",
    "IC50": 4.66
  },
  {
    "molecule": "CC(C)C[C@H](NC(=O)[C@H](CC(N)=O)NC(=O)[C@@H](NC(=O)[C@@H](N)CCC(=O)O)C(C)C)C(=O)N[C@@H](C)CN[C@@H](C)C(=O)N[C@@H](CCC(=O)O)C(=O)N[C@@H](Cc1ccccc1)C(=O)O (H-EVNL-X1)",
    "measurement target": "Beta-secretase 1 (Homo sapiens, UniProt P56817)",
    "unit string": "µM",
    "IC50": 0.003
  },
  {
    "molecule": "CC1=C(C(=O)Nc2nc(C)cs2)C(c2ccc([N+](=O)[O-])cc2)C(C(=O)Nc2nc(C)cs2)=C(C)N1",
    "measurement target": "Beta-secretase 1 (Homo sapiens, UniProt P56817)",
    "unit string": "µM",
    "IC50": 4.21
  }
]

The molecule listed as CC1=C(C(=O)Nc2nc(C)cs2)C(c2ccco2)C(C(=O)Nc2nc(C)cs2)=C(C)N1 has a reported IC50 of 6.78

The molecule listed as CC1=C(C(=O)Nc2nc3ccccc3s2)C(c2ccccc2[N+](=O)[O-])C(C(=O)Nc2nc3ccccc3s2)=C(C)N1 has a reported IC50 of 4.27
